experimentSummary: Half-life evaluated in 0.1 M phosphate buffer, 37 degree Centigrade.
Type: ADME
quantityMeasured: half-life (h)
Value expressed in h; do not type the unit.

Measured half-life, CC(C)C(NC(=O)N(CCCl)N=O)C(N)=O (configuration not stated) : 0.258

Recorded half-life (molecule NC(=O)C1CCCN1C(=O)N(CCCl)N=O (configuration not stated) ): 4.26
